Data provenance is the supplement of paper PMC6279402.

# Test system: A549
# test-description: relative viability (normalised to negative control = 1, bortezomib = 0) (fraction); higher = less cytotoxic
# reported-conditions: inflammatory serum-free RHB-A with cytokines + LPS; 5 d + 24 h CellTiter-Blue; compound 300 nM; GSK126 pretreatment: 5 uM GSK126
Counter-ions that a name gives are not always drawn.
Grouping key: relative viability. Bins: lower bin = under 0.6, middle bin = from 0.6 up to 0.9, upper bin = 0.9 and over

INSERT INTO results (compound, assigned_class) VALUES
  ('Cc1ccc(NC(=O)c2ccc(CN3CCN(C)CC3)cc2)cc1Nc1nccc(-c2cccnc2)n1', 'upper bin'),
  ('Clc1ccc(Nc2nnc(Cc3ccncc3)c3ccccc23)cc1 [Vatalanib]', 'middle bin'),
  ('Cc1cc(Nc2cc(CN3CCOCC3)c3nc(C)c(Cc4ccc(Cl)cc4F)n3n2)n[nH]1', 'upper bin'),
  ('CS(=O)(=O)N1CCN(Cc2cc3nc(-c4cccc5[nH]ncc45)nc(N4CCOCC4)c3s2)CC1', 'lower bin'),
  ('C#Cc1cccc(Nc2ncnc3cc(OCCOC)c(OCCOC)cc23)c1', 'lower bin'),
  ('O=C1C(c2c(O)[nH]c3ccccc23)=Nc2ccccc21 [Indirubin; INDIRUBIN]', 'middle bin'),
  ('COc1cccc2c1C(=O)c1c(O)c3c(c(O)c1C2=O)C[C@@](O)(C(=O)CO)C[C@@H]3O[C@H]1C[C@H](N)[C@H](O)[C@H](C)O1 [Doxorubicin hydrochloride; 4''-Epiadriamycin; Doxorubicin HCl]', 'lower bin'),
  ('CC(=O)Nc1nc(C)c(-c2ccc(Cl)c(S(=O)(=O)NCCO)c2)s1', 'lower bin');

(Q) Classify this compound: CC(=O)O[C@]1(C(C)=O)CC[C@H]2[C@@H]3C=C(C)C4=CC(=O)CC[C@]4(C)[C@H]3CC[C@@]21C [Megestrol acetate]
(A) upper bin

(Q) Classify this compound: CS(=O)(=O)c1ccc(C(=O)Nc2ccc(Cl)c(-c3ccccn3)c2)c(Cl)c1 [Vismodegib]
(A) upper bin

(Q) Classify this compound: CO[C@@]12[C@H](COC(N)=O)C3=C(C(=O)C(C)=C(N)C3=O)N1C[C@@H]1N[C@@H]12 [Mitomycin; Mitomycin C]
(A) lower bin

* * *

# Tested on: A549
# test-description: relative viability (normalised to negative control = 1, bortezomib = 0) (fraction); higher = less cytotoxic
# reported-conditions: inflammatory serum-free RHB-A with cytokines + LPS; 5 d + 24 h CellTiter-Blue; compound 30 nM; GSK126 pretreatment: none (vehicle)
Counter-ions that a name gives are not always drawn.
readout-label: relative viability
Output spec: single numeric token, no unit.

Below, 2 molecules whose answers are already recorded.
INSERT INTO measurements (molecule, readout_label, value) VALUES
  ('CC[C@H](Nc1ncnc2nc[nH]c12)c1nc2cccc(F)c2c(=O)n1-c1ccccc1', 'relative viability', 0.876),
  ('CCOc1cc2ncc(C#N)c(Nc3ccc(F)c(Cl)c3)c2cc1NC(=O)/C=C/CN(C)C', 'relative viability', 0.504);

The molecule listed as CC[C@]1(O)C[C@@H]2CN(CCc3c([nH]c4ccccc34)[C@@](C(=O)OC)(c3cc4c(cc3OC)N(C)[C@H]3[C@@](O)(C(=O)OC)[C@H](OC(C)=O)[C@]5(CC)C=CCN6CC[C@]43[C@@H]65)C2)C1 [Vinblastine sulfate salt; Vinblastine sulfate] has a reported relative viability of 0.286

The molecule listed as O=C1NC(=O)/C(=C/c2ccc3nccc(-c4ccncc4)c3c2)S1 has a reported relative viability of 0.85

The molecule listed as CCCS(=O)(=O)Nc1ccc(F)c(C(=O)c2c[nH]c3ncc(Cl)cc23)c1F has a reported relative viability of 0.725

* * *

# Tested on: A549
# test-description: relative viability (normalised to negative control = 1, bortezomib = 0) (fraction); higher = less cytotoxic
# reported-conditions: inflammatory serum-free RHB-A with cytokines + LPS; 5 d + 24 h CellTiter-Blue; compound 30 nM; GSK126 pretreatment: 5 uM GSK126
Structures can show the parent of a compound that is named as a salt.
Grouping key: relative viability. Bins: A = under 0.8, B = from 0.8 up to 0.9, C = 0.9 and over

INSERT INTO measurements (compound, assigned_class) VALUES
  ('CN1CC[C@H](c2c(O)cc(O)c3c(=O)cc(-c4ccccc4Cl)oc23)[C@H](O)C1 [Flavopiridol hydrochloride]', 'A'),
  ('Cc1ccc(C(=O)Nc2cccc(C(F)(F)F)c2)cc1Nc1nc(-c2cccnc2)nc2c1cnn2C', 'C'),
  ('Nc1ncn([C@@H]2O[C@H](CO)[C@@H](O)[C@H]2O)c(=O)n1', 'B');

(Q) Classify this compound: Nc1cc(C(F)(F)F)c(-c2cc(N3CCOCC3)nc(N3CCOCC3)n2)cn1
(A) B

(Q) Classify this compound: CN(C)Cc1cccc(N=C(c2ccccc2)c2c(O)[nH]c3cc(C(=O)N(C)C)ccc23)c1
(A) B

(Q) Classify this compound: N#CCNC(=O)c1ccc(-c2ccnc(Nc3ccc(N4CCOCC4)cc3)n2)cc1
(A) C

(Q) Classify this compound: CCN(CCO)CCCOc1ccc2c(Nc3cc(CC(=O)Nc4cccc(F)c4)[nH]n3)ncnc2c1
(A) A

(Q) Classify this compound: C/C=C1\NC(=O)[C@H]2CSSCC/C=C/[C@H](CC(=O)N[C@H](C(C)C)C(=O)N2)OC(=O)[C@H](C(C)C)NC1=O [Depsipeptide]
(A) A

(Q) Classify this compound: CC[C@@]1(O)C(=O)OCc2c1cc1n(c2=O)Cc2cc3c(CN(C)C)c(O)ccc3nc2-1 [Topotecan HCl; Topotecan hydrochloride]
(A) A

(Q) Classify this compound: CN(C)Cc1cccc(N=C(c2ccccc2)c2c(O)[nH]c3cc(C(N)=O)ccc23)c1
(A) C

(Q) Classify this compound: COc1ccc(-c2cc3c(C)nc(N)nc3n(C3CCC(OCCO)CC3)c2=O)cn1 (stereo not given)
(A) A

* * *

# System: A549
# test-description: relative viability (normalised to negative control = 1, bortezomib = 0) (fraction); higher = less cytotoxic
# reported-conditions: inflammatory serum-free RHB-A with cytokines + LPS; 5 d + 24 h CellTiter-Blue; compound 300 nM; GSK126 pretreatment: none (vehicle)
Grouping key: relative viability. Bins: low: < 0.6; mid: ≥ 0.6 and < 1; high: ≥ 1

(Q) Classify this compound: CC[C@@H]1C(=O)N(C)c2cnc(Nc3ccc(C(=O)NC4CCC(N5CCN(CC6CC6)CC5)CC4)cc3OC)nc2N1C(C)C (some centres not stated) [BI6727 (Volasertib)]
(A) low

(Q) Classify this compound: CCN1CCN(Cc2ccc(-c3cc4c(N[C@H](C)c5ccccc5)ncnc4[nH]3)cc2)CC1
(A) low

* * *

Recorded relative viability values for a group of compounds are listed next.
# System: A549
# test-description: relative viability (normalised to negative control = 1, bortezomib = 0) (fraction); higher = less cytotoxic
# reported-conditions: inflammatory serum-free RHB-A with cytokines + LPS; 5 d + 24 h CellTiter-Blue; compound 300 nM; GSK126 pretreatment: none (vehicle)
Structures can show the parent of a compound that is named as a salt.
Output spec: single numeric token, no unit.

Below, 3 compounds whose answers are already recorded.
INSERT INTO assay_data (compound, target_or_test_system, value) VALUES
  ('COc1ccc(S(=O)(=O)N(C(C)=O)c2ccccc2/C=C/c2cc[n+]([O-])cc2)cc1', 'A549', 0.623),
  ('Cc1ccc([N+](=O)[O-])cc1S(=O)(=O)N(C)/N=C/c1cnc2ccc(Br)cn12 [PIK-75 Hydrochloride]', 'A549', -0.00104),
  ('CN1CC[C@H](c2c(O)cc(O)c3c(=O)cc(-c4ccccc4Cl)oc23)[C@H](O)C1', 'A549', 0.0301);

The compound listed as C=CC(=O)Nc1cccc(Oc2nc(Nc3ccc(N4CCN(C)CC4)cc3)ncc2Cl)c1 has a reported relative viability of 0.0677

The compound listed as CNC(=O)CN1CCC(Oc2cc3c(Nc4cccc(Cl)c4F)ncnc3cc2OC)CC1 has a reported relative viability of 0.375

The compound listed as COc1cc2nccc(Oc3ccc(NC(=O)C4(C(=O)Nc5ccc(F)cc5)CC4)cc3)c2cc1OC [XL184; Cabozantinib] has a reported relative viability of 0.974

The compound listed as COc1cc(OC)c(/C=C/S(=O)(=O)Cc2ccc(OC)c(NCC(=O)O)c2)c(OC)c1 has a reported relative viability of 0.245

The compound listed as CCCS(=O)(=O)Nc1ccc(F)c(C(=O)c2c[nH]c3ncc(-c4ccc(Cl)cc4)cc23)c1F has a reported relative viability of 1.02

* * *

# System: A549
# test-description: relative viability (normalised to negative control = 1, bortezomib = 0) (fraction); higher = less cytotoxic
# reported-conditions: inflammatory serum-free RHB-A with cytokines + LPS; 5 d + 24 h CellTiter-Blue; compound 30 nM; GSK126 pretreatment: 5 uM GSK126
Recorded relative viability values for a group of compounds are listed next.
Output spec: single numeric token, no unit.

Below, 5 compounds whose answers are already recorded.
INSERT INTO assay_data (compound, readout_label, value) VALUES
  ('O=C(NC1CCNCC1)c1n[nH]cc1NC(=O)c1c(Cl)cccc1Cl', 'relative viability', 0.969),
  ('O=c1c(O)c(-c2ccc(O)c(O)c2)oc2cc(O)cc(O)c12 [QUERCETIN; Quercetin(Sophoretin); Quercetin dihydrate]', 'relative viability', 0.89),
  ('Cc1ccc(S(=O)(=O)Nc2nc3ccccc3nc2Nc2ccc3nsnc3c2)cc1', 'relative viability', 0.8),
  ('Cc1cn(-c2cc(NC(=O)c3ccc(C)c(Nc4nccc(-c5cccnc5)n4)c3)cc(C(F)(F)F)c2)cn1 [Nilotinib]', 'relative viability', 1.02),
  ('O=c1ncn2nc(Sc3ccc(F)cc3F)ccc2c1-c1c(Cl)cccc1Cl', 'relative viability', 0.831);

Okay, next one:
The compound listed as Cc1cnc(Nc2ccc(N3CCN(C)CC3)cc2)nc1Nc1cccc(S(=O)(=O)NC(C)(C)C)c1 has a reported relative viability of 1.22
